System: ANGPTL4, a PPARG target gene, in HT1197 (RXRA S427F mutation) cells
Assay: Bladder cancer pharmacodynamic assay (HT1197 cell assay, qPCR of PPARG target genes)
Type: cell-based
Details: Homo sapiens, 100 nM compound, 24 hours, relative to DMSO control
Each entry below lists one item and its recorded inhibition at 0.1 µM value.

[
  {
    "molecule": "CS(=O)(=O)c1ccc(C#N)cc1C(=O)Nc1ccc2cnccc2c1 [Example 14]",
    "inhibition at 0.1 µM": "35%"
  },
  {
    "molecule": "N#Cc1ccc(SC(F)(F)F)c(C(=O)Nc2cc(F)c(-c3ccc(C(F)F)nc3)c(F)c2)c1 [Example 2]",
    "inhibition at 0.1 µM": "83%"
  },
  {
    "molecule": "CN1Cc2ccc(-c3c(F)cc(NC(=O)c4cc(C#N)ccc4SC(F)(F)F)cc3F)cc2C1=O [Example 27]",
    "inhibition at 0.1 µM": "79%"
  },
  {
    "molecule": "CS(=O)(=O)c1ccc(C#N)cc1C(=O)Nc1ccc(C(F)(F)F)c(C#N)c1 [Example 10]",
    "inhibition at 0.1 µM": "48%"
  }
]

----------
Tested on: ANGPTL4, a PPARG target gene, in HT1197 (RXRA S427F mutation) cells
Assay: Bladder cancer pharmacodynamic assay (HT1197 cell assay, qPCR of PPARG target genes)
Type: cell-based
Conditions: Homo sapiens, 100 nM compound, 24 hours, relative to DMSO control
Entries get a class label from measured inhibition at 0.1 µM. See ranges: zone 1 (below 40%), zone 2 (40% to below 60%), zone 3 (60% or more)

[
  {
    "smiles.representation": "CS(=O)(=O)c1ccc(C#N)cc1C(=O)Nc1ccn2nccc2c1",
    "qualitative.label": "zone 1"
  },
  {
    "smiles.representation": "CS(=O)(=O)c1ccc(C#N)cc1C(=O)Nc1ccc2ccncc2c1",
    "qualitative.label": "zone 1"
  },
  {
    "smiles.representation": "N#Cc1ccc(SC(F)(F)F)c(C(=O)Nc2ccnc(C(F)(F)F)c2)c1",
    "qualitative.label": "zone 2"
  },
  {
    "smiles.representation": "CS(=O)(=O)c1ccc(C#N)cc1C(=O)Nc1ccc(C#N)c(C(F)(F)F)c1",
    "qualitative.label": "zone 3"
  },
  {
    "smiles.representation": "Cc1cc(NC(=O)c2cc(C#N)ccc2S(C)(=O)=O)cnc1C(F)(F)F",
    "qualitative.label": "zone 2"
  },
  {
    "smiles.representation": "Cc1ccc(-c2c(F)cc(NC(=O)c3cc(C#N)ccc3SC(F)(F)F)cc2F)cn1",
    "qualitative.label": "zone 2"
  },
  {
    "smiles.representation": "Cn1cc(-c2c(F)cc(NC(=O)c3cc(C#N)ccc3SC(F)(F)F)cc2F)cn1",
    "qualitative.label": "zone 3"
  },
  {
    "smiles.representation": "Cc1cc(NC(=O)c2cc(C#N)ccc2S(C)(=O)=O)cc(C)n1",
    "qualitative.label": "zone 1"
  },
  {
    "smiles.representation": "N#Cc1ccc(SC(F)(F)F)c(C(=O)Nc2cc(F)cc(F)c2)c1",
    "qualitative.label": "zone 2"
  },
  {
    "smiles.representation": "CS(=O)(=O)c1ccc(C#N)cc1C(=O)Nc1ccc(C#N)c(F)c1",
    "qualitative.label": "zone 3"
  },
  {
    "smiles.representation": "CN1CCN(c2ccc(NC(=O)c3cc(C#N)ccc3S(C)(=O)=O)cn2)CC1",
    "qualitative.label": "zone 1"
  },
  {
    "smiles.representation": "CS(=O)(=O)c1cnc(C#N)cc1C(=O)Nc1ccnc(C(F)(F)F)c1",
    "qualitative.label": "zone 3"
  },
  {
    "smiles.representation": "N#Cc1ccc(SC(F)(F)F)c(C(=O)Nc2cc(F)cc(Oc3ccc(Cl)cc3)c2)c1",
    "qualitative.label": "zone 1"
  },
  {
    "smiles.representation": "CS(=O)(=O)c1ccc(C#N)cc1C(=O)Nc1ccnc(C(F)(F)F)c1",
    "qualitative.label": "zone 3"
  },
  {
    "smiles.representation": "CN1Cc2ccc(-c3c(F)cc(NC(=O)c4cc(C#N)ccc4S(C)(=O)=O)cc3F)cc2C1=O",
    "qualitative.label": "zone 3"
  },
  {
    "smiles.representation": "N#Cc1ccc(SC(F)(F)F)c(C(=O)Nc2cc(Cl)cc(Cl)c2)c1",
    "qualitative.label": "zone 2"
  }
]

----------
Molecular target: PPARG/RXRA LBD heterodimer (Homo sapiens, UniProt P37231)
Construct: 2 nM WT PPARG LBD (e. coli expressed, His-TEV-Q203-Y477); fused on or other part: N-terminal His tag with TEV site on the PPARG LBD
Assay: PPARγ-NCOR1 recruitment assay (TR-FRET)
Type: binding
Conditions: NCOR1 ID2 peptide, 80 nM Rosiglitazone, 3 hours, read-out: PPARG - NCOR recruitment assay EC50
Sequence (P37231 231-505 limits assumed): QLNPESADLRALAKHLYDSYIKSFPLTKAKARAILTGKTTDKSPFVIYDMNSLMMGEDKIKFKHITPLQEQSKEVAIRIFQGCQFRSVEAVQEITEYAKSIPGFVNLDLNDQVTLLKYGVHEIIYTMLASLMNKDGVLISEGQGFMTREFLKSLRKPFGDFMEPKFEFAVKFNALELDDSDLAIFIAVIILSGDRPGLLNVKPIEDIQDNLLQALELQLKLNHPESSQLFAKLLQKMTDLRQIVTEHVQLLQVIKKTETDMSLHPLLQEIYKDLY
Sequence (O75376 2251-2273 limits assumed, further chain): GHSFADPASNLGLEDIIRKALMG
Each entry below lists one item and its recorded EC50 value.
measure.name: EC50

[
  {
    "smiles.representation": "CN1CCN(c2ccc(NC(=O)c3cc(C#N)ccc3S(C)(=O)=O)cn2)CC1",
    "assay.result": "> 10000 nM"
  },
  {
    "smiles.representation": "Cc1cc(NC(=O)c2cc(C#N)ccc2S(C)(=O)=O)cnc1C(F)(F)F",
    "assay.result": "1000 to 10000 nM"
  },
  {
    "smiles.representation": "CS(=O)(=O)c1cnc(C#N)cc1C(=O)Nc1cc(F)cc(F)c1",
    "assay.result": "10 to 100 nM"
  },
  {
    "smiles.representation": "CS(=O)(=O)c1ccc(C#N)cc1C(=O)Nc1cc(F)cc(C#N)c1",
    "assay.result": "100 to 1000 nM"
  },
  {
    "smiles.representation": "CS(=O)(=O)c1ccc(C#N)cc1C(=O)Nc1cc(Cl)cc(Cl)c1",
    "assay.result": "100 to 1000 nM"
  },
  {
    "smiles.representation": "Cc1ccc(-c2c(F)cc(NC(=O)c3cc(C#N)ccc3SC(F)(F)F)cc2F)cn1",
    "assay.result": "10 to 100 nM"
  },
  {
    "smiles.representation": "CC(=O)N1CCN(c2ccc(NC(=O)c3cc(C#N)ccc3S(C)(=O)=O)cn2)CC1",
    "assay.result": "> 10000 nM"
  },
  {
    "smiles.representation": "N#Cc1ccc(SC(F)(F)F)c(C(=O)Nc2cc(F)cc(F)c2)c1",
    "assay.result": "100 to 1000 nM"
  },
  {
    "smiles.representation": "CS(=O)(=O)c1ccc(C#N)cc1C(=O)Nc1ccc(C(F)(F)F)c(C#N)c1",
    "assay.result": "100 to 1000 nM"
  },
  {
    "smiles.representation": "CS(=O)(=O)c1ccc(C#N)cc1C(=O)Nc1cc(F)cc(Oc2ccc(Cl)cc2)c1",
    "assay.result": "10 to 100 nM"
  },
  {
    "smiles.representation": "N#Cc1cc(C(=O)Nc2cc(F)cc(F)c2)c(S(=O)(=O)CC(F)(F)F)cn1",
    "assay.result": "100 to 1000 nM"
  },
  {
    "smiles.representation": "N#Cc1ccc(SC(F)(F)F)c(C(=O)Nc2ccnc(C(F)(F)F)c2)c1",
    "assay.result": "1000 to 10000 nM"
  },
  {
    "smiles.representation": "CS(=O)(=O)c1ccc(C#N)cc1C(=O)Nc1cc(F)c(-c2ccc3c(c2)C(=O)NC3)c(F)c1",
    "assay.result": "10 to 100 nM"
  },
  {
    "smiles.representation": "Cc1ccc(-c2c(F)cc(NC(=O)c3cc(C#N)ccc3S(C)(=O)=O)cc2F)cn1",
    "assay.result": "100 to 1000 nM"
  },
  {
    "smiles.representation": "Cc1cc(NC(=O)c2cc(C#N)ccc2S(C)(=O)=O)cc(C)n1",
    "assay.result": "> 10000 nM"
  },
  {
    "smiles.representation": "CS(=O)(=O)c1ccc(C#N)cc1C(=O)Nc1ccn2nccc2c1",
    "assay.result": "> 10000 nM"
  },
  {
    "smiles.representation": "CS(=O)(=O)c1ccc(C#N)cc1C(=O)Nc1ccc2cnccc2c1",
    "assay.result": "1000 to 10000 nM"
  }
]

----------
Target: PPARG/RXRA LBD heterodimer (Homo sapiens, UniProt P37231)
Construct: His-TEV-Q203-Y477; Uniprot ID P37231-2; made in house; host or cells: E. coli
Assay: PPARγ-MED1 blockade assay (TR-FRET)
Type: binding
Details: MED1 LxxLL peptide, 80 nM Rosiglitazone, 3 hours
Sequence (P37231 231-505): as the sequence (P37231 231-505 limits assumed) above
Sequence (P19793 228-462 partner limits assumed): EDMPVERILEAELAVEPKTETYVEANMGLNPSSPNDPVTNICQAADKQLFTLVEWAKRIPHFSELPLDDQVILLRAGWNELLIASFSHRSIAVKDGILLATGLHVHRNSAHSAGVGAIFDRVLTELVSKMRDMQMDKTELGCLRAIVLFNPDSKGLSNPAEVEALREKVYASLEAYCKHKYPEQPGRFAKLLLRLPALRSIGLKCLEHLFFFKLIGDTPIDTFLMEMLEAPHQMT
pEC50: −log10 of the molar value.
Each entry below lists one item and its recorded pEC50 value.

[
  {
    "compound": "CS(=O)(=O)c1ccc(C#N)cc1C(=O)Nc1cc(F)c(-c2ccc(C(F)F)nc2)c(F)c1 [Example 13]",
    "tested.target": "PPARG/RXRA LBD heterodimer (Homo sapiens, UniProt P37231)",
    "pEC50": "6.00 to 7.00"
  },
  {
    "compound": "CS(=O)(=O)c1ccc(C#N)cc1C(=O)Nc1cc(F)cc(C#N)c1 [Example 25]",
    "tested.target": "PPARG/RXRA LBD heterodimer (Homo sapiens, UniProt P37231)",
    "pEC50": "6.00 to 7.00"
  },
  {
    "compound": "Cc1cc(NC(=O)c2cc(C#N)ccc2S(C)(=O)=O)cnc1C(F)(F)F [Example 30]",
    "tested.target": "PPARG/RXRA LBD heterodimer (Homo sapiens, UniProt P37231)",
    "pEC50": "5.00 to 6.00"
  },
  {
    "compound": "N#Cc1ccc(SC(F)(F)F)c(C(=O)Nc2ccnc(C(F)(F)F)c2)c1 [Example 24]",
    "tested.target": "PPARG/RXRA LBD heterodimer (Homo sapiens, UniProt P37231)",
    "pEC50": "5.00 to 6.00"
  }
]
